Where do these numbers come from? They come from patent US20150164899A1.

- Measured on: AAK1 (full-length human protein) (Homo sapiens, UniProt Q2M2I8)
- Construct: NP_055726.2
- Sequence (Q2M2I8 1-863 isoform Q2M2I8-2): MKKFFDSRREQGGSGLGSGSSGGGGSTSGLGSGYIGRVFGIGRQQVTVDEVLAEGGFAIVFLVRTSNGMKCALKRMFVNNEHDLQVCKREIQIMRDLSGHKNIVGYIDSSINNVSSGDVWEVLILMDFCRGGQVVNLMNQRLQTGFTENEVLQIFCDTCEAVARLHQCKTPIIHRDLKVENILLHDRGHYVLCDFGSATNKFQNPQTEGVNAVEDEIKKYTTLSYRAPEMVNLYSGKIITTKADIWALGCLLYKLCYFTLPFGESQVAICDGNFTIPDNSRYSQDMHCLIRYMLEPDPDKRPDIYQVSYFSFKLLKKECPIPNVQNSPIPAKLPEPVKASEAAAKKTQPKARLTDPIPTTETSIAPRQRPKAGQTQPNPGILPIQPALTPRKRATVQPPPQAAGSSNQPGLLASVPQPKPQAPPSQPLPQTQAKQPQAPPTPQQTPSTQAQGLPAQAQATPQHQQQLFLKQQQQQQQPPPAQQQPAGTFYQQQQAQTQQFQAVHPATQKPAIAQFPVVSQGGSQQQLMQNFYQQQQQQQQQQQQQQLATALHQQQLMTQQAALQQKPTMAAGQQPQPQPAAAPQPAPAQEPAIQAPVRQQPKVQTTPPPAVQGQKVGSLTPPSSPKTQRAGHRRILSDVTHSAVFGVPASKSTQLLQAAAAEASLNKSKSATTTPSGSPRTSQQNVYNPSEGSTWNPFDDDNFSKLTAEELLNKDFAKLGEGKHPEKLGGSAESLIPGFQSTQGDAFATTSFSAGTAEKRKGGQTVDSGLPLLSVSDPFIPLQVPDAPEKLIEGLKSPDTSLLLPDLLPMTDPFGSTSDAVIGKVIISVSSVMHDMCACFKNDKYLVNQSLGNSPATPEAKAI
- Assay overview: P81 filter plate assay
- Format: biochemical
- Condition summary: pyrazolo[1,5-a]pyrimidine-based inhibitors
pIC50: −log10 of the molar value.
Could you please report measured pIC50 for the items listed next?

Req: # returns recorded pIC50 (system: AAK1 (full-length human protein) (Homo sapiens, UniProt Q2M2I8)) for COc1ccc(-c2cnn3ccc(N4CCN(C(=O)OC(C)C)CC4)nc23)c(OC)n1
Resp: ≥ 8.00

Req: Lab request: please report pIC50 under test system AAK1 (full-length human protein) (Homo sapiens, UniProt Q2M2I8) for COc1ncccc1-c1cnn2ccc(N3CCN(C(=O)N(C)C(C)(C)C)CC3)nc12
Resp: ≥ 8.00

Req: What measured pIC50 is associated with COc1ncccc1-c1cnn2ccc(N3CCN(C(=O)OC(C)C)C(C)(C)C3)nc12 on AAK1 (full-length human protein) (Homo sapiens, UniProt Q2M2I8)?
Resp: ≥ 7.00

Req: # returns recorded pIC50 (system: AAK1 (full-length human protein) (Homo sapiens, UniProt Q2M2I8)) for CCCC(=O)N(C)[C@H]1CCN(c2ccn3ncc(-c4ccccc4OC)c3n2)C1
Resp: ≥ 8.00

Req: Could you share what pIC50 was measured for COC(=O)N1CCN(c2ccn3ncc(-c4cccnc4OC)c3n2)CC1 , tested on AAK1 (full-length human protein) (Homo sapiens, UniProt Q2M2I8)?
Resp: ≥ 7.00

Req: Fill in the recorded pIC50 for this compound, with AAK1 (full-length human protein) (Homo sapiens, UniProt Q2M2I8) as test system: CC(C)OC(=O)N1CCN(c2ccn3ncc(C(C)C)c3n2)CC1
Resp: ≥ 7.00

Req: Which pIC50 is reported with AAK1 (full-length human protein) (Homo sapiens, UniProt Q2M2I8) for this entry: CC(C)Oc1ccccc1-c1cnn2ccc(NC[C@@H]3CCCN3C(=O)OC(C)(C)C)nc12 ?
Resp: ≥ 8.00

Req: Under AAK1 (full-length human protein) (Homo sapiens, UniProt Q2M2I8): pIC50 value of CC(C)OC(=O)N(C)[C@H]1CCN(c2ccn3ncc(-c4ccncc4)c3n2)C1 ?
Resp: ≥ 7.00

Req: Give the reported pIC50 for COc1ccccc1-c1cnn2ccc(NC[C@@H]3CCCN3C(=O)CC(C)(C)C)nc12 (system: AAK1 (full-length human protein) (Homo sapiens, UniProt Q2M2I8)).
Resp: ≥ 8.00

Req: Query pIC50 on AAK1 (full-length human protein) (Homo sapiens, UniProt Q2M2I8) for CNC(=O)c1cnn2ccc(N3CCN(C(=O)OC(C)C)CC3)nc12
Resp: ≥ 7.00

Req: Please provide the recorded pIC50 for COc1ncccc1-c1cnn2ccc(NC[C@@H]3CCC(=O)N3CCC(C)(C)C)nc12 , tested on AAK1 (full-length human protein) (Homo sapiens, UniProt Q2M2I8).
Resp: ≥ 8.00

Req: Which pIC50 is reported with AAK1 (full-length human protein) (Homo sapiens, UniProt Q2M2I8) for this entry: CCOc1cccc(-c2cnn3ccc(N4CCN(C(=O)OC(C)C)CC4)nc23)c1 ?
Resp: ≥ 8.00

Req: Entry CC(C)OC(=O)N1CCN(c2ccn3ncc(-c4cccnc4OC(C)C)c3n2)CC1 , system AAK1 (full-length human protein) (Homo sapiens, UniProt Q2M2I8): what pIC50 was measured?
Resp: ≥ 8.00

Req: # query: pIC50 | item CC(C)OC(=O)N1CCN(c2ccn3ncc(-c4cccnc4Cl)c3n2)CC1 | system: AAK1 (full-length human protein) (Homo sapiens, UniProt Q2M2I8)
Resp: ≥ 7.00

Req: Provide the documented pIC50 with AAK1 (full-length human protein) (Homo sapiens, UniProt Q2M2I8) as the system for COc1ccccc1-c1cnn2ccc(NC[C@@H]3CCC(=O)N3CCC(C)(C)C)nc12
Resp: ≥ 8.00

Req: Tell me reported pIC50 for COc1ncccc1-c1cnn2ccc(C3=CCN(C(=O)OC(C)C)CC3)nc12 , tested with AAK1 (full-length human protein) (Homo sapiens, UniProt Q2M2I8).
Resp: ≥ 8.00

Req: Missing value: pIC50, AAK1 (full-length human protein) (Homo sapiens, UniProt Q2M2I8), entry COc1ncccc1-c1cnn2ccc(N3CC(N(C)C(=O)OC(C)C)C3)nc12 . Fill in?
Resp: ≥ 7.00

Req: # value lookup — system AAK1 (full-length human protein) (Homo sapiens, UniProt Q2M2I8), readout pIC50, item CC(C)(C)CCN1C(=O)CC[C@H]1CNc1ccn2ncc(Br)c2n1
Resp: ≥ 8.00

Req: Query the reported pIC50 for AAK1 (full-length human protein) (Homo sapiens, UniProt Q2M2I8); item: CC(C)Cn1cc(-c2cnn3ccc(N4CCN(C(=O)OC(C)C)CC4)nc23)cn1
Resp: ≥ 7.00

Req: What pIC50 appears in the records for this compound with AAK1 (full-length human protein) (Homo sapiens, UniProt Q2M2I8)? COc1ccc(-c2cnn3ccc(N4CCN(C(=O)OC(C)C)CC4)nc23)cn1
Resp: ≥ 8.00

Req: Hello, I am looking for reported pIC50 with AAK1 (full-length human protein) (Homo sapiens, UniProt Q2M2I8) for COc1ccccc1-c1cnn2ccc(N3CC[C@H](N(C)C(=O)CC(F)(F)F)C3)nc12 . Could you help?
Resp: ≥ 7.00

Req: Look up pIC50 with AAK1 (full-length human protein) (Homo sapiens, UniProt Q2M2I8) for this compound: COc1ncccc1-c1cnn2ccc(N3CCN(C(=O)OC(C)C)CC3=O)nc12
Resp: ≥ 8.00

Req: Field: pIC50 (AAK1 (full-length human protein) (Homo sapiens, UniProt Q2M2I8)). Entry: CN(C(=O)N1CCCC1)[C@H]1CCN(c2ccn3ncc(Br)c3n2)C1
Resp: ≥ 7.00

Req: Lookup: pIC50 / AAK1 (full-length human protein) (Homo sapiens, UniProt Q2M2I8) / CC(C)OC(=O)N1CCN(c2ccn3ncc(-c4cnccc4F)c3n2)CC1
Resp: ≥ 7.00

Req: What reported pIC50 corresponds to CC(C)(C)OC(=O)N1CCC[C@H]1CNc1ccn2ncc(-c3ccccc3O)c2n1 on AAK1 (full-length human protein) (Homo sapiens, UniProt Q2M2I8)?
Resp: ≥ 8.00

Req: Find the measured pIC50: item COc1cncc(-c2cnn3ccc(N4CCN(C(=O)OC(C)C)CC4)nc23)c1 , target or system AAK1 (full-length human protein) (Homo sapiens, UniProt Q2M2I8).
Resp: ≥ 8.00

Req: What pIC50 appears in the records for this compound with AAK1 (full-length human protein) (Homo sapiens, UniProt Q2M2I8)? CN(C(=O)CC(F)(F)F)[C@H]1CCN(c2ccn3ncc(-c4ccccn4)c3n2)C1
Resp: ≥ 8.00

Req: Recall the recorded pIC50 for COc1ncccc1-c1cnn2ccc(N(CCCC(F)(F)F)C(C)=O)nc12 with AAK1 (full-length human protein) (Homo sapiens, UniProt Q2M2I8) and state it.
Resp: ≥ 6.00

Req: Hi! What's the reported pIC50 for COc1ncccc1-c1cnn2ccc(N3CCN(C(=O)N(C)C(C)C)CC3)nc12 on AAK1 (full-length human protein) (Homo sapiens, UniProt Q2M2I8)?
Resp: ≥ 8.00

Req: API: value(readout= pIC50, system= AAK1 (full-length human protein) (Homo sapiens, UniProt Q2M2I8), query= Cc1nn(C)c(C)c1-c1cnn2ccc(N3CCN(C(=O)OC(C)C)CC3)nc12 )
Resp: ≥ 7.00

Req: AAK1 (full-length human protein) (Homo sapiens, UniProt Q2M2I8) / pIC50 / CC(C)OC(=O)N1CCN(c2ccn3ncc(-c4cccnc4)c3n2)CC1 : value?
Resp: ≥ 8.00

Req: What value of pIC50 on AAK1 (full-length human protein) (Homo sapiens, UniProt Q2M2I8) does CC(C)(C)NC(=O)N1CCC[C@H]1CNc1ccn2ncc(Br)c2n1 have?
Resp: ≥ 8.00

Req: Form entry - test system: AAK1 (full-length human protein) (Homo sapiens, UniProt Q2M2I8); read-out: pIC50; compound: COc1ncccc1-c1cnn2ccc(N3CCN(C(=O)OCCF)CC3)nc12
Resp: ≥ 8.00

Req: Requested read-out pIC50, target or system AAK1 (full-length human protein) (Homo sapiens, UniProt Q2M2I8), entry COc1cnccc1-c1cnn2ccc(NC[C@@H]3CCC(=O)N3CCC(C)(C)C)nc12
Resp: ≥ 8.00
